assay.method.text: chemical genetic growth profiling, strain panel (AID 1159580);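 note: tested at 20 µM; growth read once vehicle control cultures reached saturation at 30 °C; 1 = growth at the plate median or of vehicle wells; lower values mean less growth of the strain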
recorded.conditions: S. cerevisiae deletion strains, growth OD, locus YKL085W, strain MDH1, active compounds read low
Hit rate of the full screen: of about 5,500 compounds, about 2,000 (36%) were called active. Another 18% or so got no clear call; they are omitted. The list shows a part of the results.
Recorded measurements of normalized growth, one per entry
Please give only the number in your answer, with no unit.

Some molecules with recorded normalized growth:
| molecule | normalized growth |
| --- | --- |
| CCN(CC)CCOC(=O)C(c1ccccc1)C1CCCCC1 (stereo not drawn) | 0.97 |
| C[C@H](CCC(=O)O)[C@H]1CCC2C3C(=O)CC4CC(=O)CC[C@]4(C)C3CC(=O)[C@@]21C (stereo partly drawn) | 1.02 |
| CC(CCC(=O)O)[C@H]1CCC2C3CC[C@@H]4CC(=O)CC[C@]4(C)C3C=C[C@@]21C (stereo partly drawn) | 1.03 |

Q: Please give the measured normalized growth for this molecule: N[C@@H](CCC(=O)N[C@@H](CS)C(=O)NCC(=O)O)C(=O)O
Ans: 0.979

Q: Moving on to CC(C)(C)NCC(O)c1ccc(O)c(CO)c1 (stereo not drawn)
Ans: 1.03

Q: Moving on to CC(C)=CC1C(C(=O)O)C1(C)C (stereo not drawn)
Ans: 0.971

Q: Moving on to CC(CCc1ccccc1)NCC(O)c1ccc(O)c(C(N)=O)c1 (stereo not drawn)
Ans: 1.01

Q: Moving on to CCOC(=O)[C@H](CCc1ccccc1)N[C@@H](C)C(=O)N1CCC[C@H]1C(=O)O
Ans: 1

====

Recorded measurements of normalized growth, one per entry
assay.method.text: chemical genetic growth profiling, strain panel (AID 1159580);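 note: tested at 20 µM; growth read once vehicle control cultures reached saturation at 30 °C; 1 = growth at the plate median or of vehicle wells; lower values mean less growth of the strain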
recorded.conditions: S. cerevisiae strains, growth OD, strain wild type, active compounds read low
Hit rate of the full screen: of about 5,500 compounds, about 2,000 (36%) were called active. About 18% were inconclusive and are not listed. The list shows a part of the results.
Please give only the number in your answer, with no unit.

Some compounds with recorded normalized growth:
| compound | normalized growth |
| --- | --- |
| CC(CCc1ccccc1)NCC(O)c1ccc(O)c(C(N)=O)c1 (stereo not given) | 1 |
| CC(=O)Oc1c(Cl)c(C)c2c(c1Cl)OC(=O)c1c(C)c(Cl)c(OC(C)=O)c(Cl)c1O2 | 0.977 |
| CN(C)C1C(=O)C(C(N)=O)=C(O)C2(O)C(=O)C3=C(O)c4c(O)ccc(Cl)c4C(C)(O)C3CC12 (stereo not given) | 1 |
| Cc1ccc2c(c1)C1(C)CCCC(C)(C(=O)O)C1CC2 (stereo not given) | 0.993 |

// next entry
Q: Please give the measured normalized growth for this compound: CC(C)(C)NCC(O)c1ccc(O)c(CO)c1 (stereo not given)
Ans: 1.01

====

assay.method.text: chemical genetic growth profiling, strain panel (AID 1159580);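 note: tested at 20 µM; growth read once vehicle control cultures reached saturation at 30 °C; 1 = growth at the plate median or of vehicle wells; lower values mean less growth of the strain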
recorded.conditions: S. cerevisiae deletion strains, growth OD, locus YCL061C, strain MRC1, active compounds read low
The whole screen tested about 5,500 compounds, of which about 2,000 (36%) were called active. Another 18% or so got no clear call; they are omitted. Some of the results follow.
Recorded measurements of normalized growth, one per entry
Please give only the number in your answer, with no unit.

| compound | normalized growth |
| --- | --- |
| O=c1[nH]cnc2ccsc12 | 0.998 |

Q: Please give the measured normalized growth for this compound: CC1=CC(=O)c2ccccc2C1=O
Ans: 0.932

Q: Moving on to CC(C)CCCC(C)[C@H]1CCC2C3C(=O)C=C4C[C@@H](O)CC[C@]4(C)C3CC[C@@]21C (stereo partly specified)
Ans: 1.01

Q: Moving on to CC(=O)O[C@H]1CC[C@@]2(C)C(=CC(=O)C3C4CCC(C(C)CCCC(C)C)[C@@]4(C)CCC32)C1 (stereo partly specified)
Ans: 1

Q: Moving on to CC(=O)Oc1ccc(O)cc1
Ans: 0.993

Q: Moving on to CC(=O)Oc1ccc(/C=C/c2cc(OC(C)=O)cc(OC(C)=O)c2)cc1
Ans: 0.953
